Every entry's value here was drawn from paper PMC2248166.

Biological target: HLA B*5401 (Homo sapiens, UniProt P01889, A329T/C349S/D138N/D201E/E176V/E187T/E204Q/E69G/I76V/K202T/L119W/R155S/R180L/S121T/S35A/S48A/V127L/V306I/V36M/Y140L)
Assay type: binding
Please note: Normalized average relative binding affinity(ARB) exactly at 0.2 is F. Only values below 0.2 get T.

Inquiry: Lab log: compare recorded Normalized average relative binding affinity(ARB) with 0.2; is it strictly lower for XXXXXLXXX [3064.0110] ?
Reply text: F

Inquiry: Lab log: compare recorded Normalized average relative binding affinity(ARB) with 0.2; is it strictly lower for XXXYXXXXX [3064.0080] ?
Reply text: F

Inquiry: Lab log: compare recorded Normalized average relative binding affinity(ARB) with 0.2; is it strictly lower for XXXXXXXWX [3064.0159] ?
Reply text: T

Inquiry: Lab log: compare recorded Normalized average relative binding affinity(ARB) with 0.2; is it strictly lower for XXXXXXCXX [3064.0122] ?
Reply text: T

Inquiry: Lab log: compare recorded Normalized average relative binding affinity(ARB) with 0.2; is it strictly lower for XXXEXXXXX [3064.0064] ?
Reply text: T

Inquiry: Lab log: compare recorded Normalized average relative binding affinity(ARB) with 0.2; is it strictly lower for XXXXXFXXX [3064.0105] ?
Reply text: F

Inquiry: Lab log: compare recorded Normalized average relative binding affinity(ARB) with 0.2; is it strictly lower for XXXXKXXXX [3064.0089] ?
Reply text: T

Inquiry: Lab log: compare recorded Normalized average relative binding affinity(ARB) with 0.2; is it strictly lower for XXXXXXXIX [3064.0148] ?
Reply text: T

Inquiry: Lab log: compare recorded Normalized average relative binding affinity(ARB) with 0.2; is it strictly lower for XXXXXXXYX [3064.0160] ?
Reply text: T

Inquiry: Lab log: compare recorded Normalized average relative binding affinity(ARB) with 0.2; is it strictly lower for XXXXXXMXX [3064.0131] ?
Reply text: T

Inquiry: Lab log: compare recorded Normalized average relative binding affinity(ARB) with 0.2; is it strictly lower for XXXMXXXXX [3064.0071] ?
Reply text: T

Inquiry: Lab log: compare recorded Normalized average relative binding affinity(ARB) with 0.2; is it strictly lower for XXXXXXXFX [3064.0145] ?
Reply text: T

Inquiry: Lab log: compare recorded Normalized average relative binding affinity(ARB) with 0.2; is it strictly lower for XXXXYXXXX [3064.0100] ?
Reply text: T

Inquiry: Lab log: compare recorded Normalized average relative binding affinity(ARB) with 0.2; is it strictly lower for XXXXXXIXX [3064.0128] ?
Reply text: T

Inquiry: Lab log: compare recorded Normalized average relative binding affinity(ARB) with 0.2; is it strictly lower for XXXXXXQXX [3064.0134] ?
Reply text: F

Inquiry: Lab log: compare recorded Normalized average relative binding affinity(ARB) with 0.2; is it strictly lower for XXXXXPXXX [3064.0113] ?
Reply text: T

Inquiry: Lab log: compare recorded Normalized average relative binding affinity(ARB) with 0.2; is it strictly lower for XXXXXXVXX [3064.0138] ?
Reply text: F

Inquiry: Lab log: compare recorded Normalized average relative binding affinity(ARB) with 0.2; is it strictly lower for XXXXRXXXX [3064.0095] ?
Reply text: F

Inquiry: Lab log: compare recorded Normalized average relative binding affinity(ARB) with 0.2; is it strictly lower for XXXXXXYXX [3064.0140] ?
Reply text: F

Inquiry: Lab log: compare recorded Normalized average relative binding affinity(ARB) with 0.2; is it strictly lower for XXXXXTXXX [3064.0117] ?
Reply text: F

Inquiry: Lab log: compare recorded Normalized average relative binding affinity(ARB) with 0.2; is it strictly lower for XXXXEXXXX [3064.0084] ?
Reply text: F

Inquiry: Lab log: compare recorded Normalized average relative binding affinity(ARB) with 0.2; is it strictly lower for XXXLXXXXX [3064.0070] ?
Reply text: F

Inquiry: Lab log: compare recorded Normalized average relative binding affinity(ARB) with 0.2; is it strictly lower for XXXXXXPXX [3064.0133] ?
Reply text: F

Inquiry: Lab log: compare recorded Normalized average relative binding affinity(ARB) with 0.2; is it strictly lower for XXXXDXXXX [3064.0083] ?
Reply text: F

Inquiry: Lab log: compare recorded Normalized average relative binding affinity(ARB) with 0.2; is it strictly lower for XXXXXKXXX [3064.0109] ?
Reply text: F

Inquiry: Lab log: compare recorded Normalized average relative binding affinity(ARB) with 0.2; is it strictly lower for XXXXNXXXX [3064.0092] ?
Reply text: F

----------
Target: HLA A*3001 (Homo sapiens, UniProt P04439, D140H/D185E/E176W/F33S/G80R/H175R/K168Q/R138E/R41S)
Assay: biochemical
Where a SMILES comes first, the peptide text is derived from it.
Field: IC50. Provide a value for each of the compounds that follow.
Numbers only; they are read as nM.

Inquiry: Field request: IC50 | item: CC[C@H](C)[C@H](NC(=O)[C@H](CC(N)=O)NC(=O)[C@@H](NC(=O)[C@@H](NC(=O)[C@H](Cc1ccccc1)NC(=O)[C@@H](NC(=O)[C@H](C)N)[C@@H](C)O)[C@@H](C)O)C(C)C)C(=O)N[C@@H](Cc1ccccc1)C(=O)N[C@@H](CCCCN)C(=O)O [3102.0081] (H-ATFTVNIFK-OH)
Reply text: 3.1

Inquiry: Field request: IC50 | item: CC[C@H](C)[C@H](N)C(=O)N[C@@H](C)C(=O)N[C@@H](CO)C(=O)N[C@H](C(=O)N[C@@H](CC(C)C)C(=O)N[C@H](C(=O)N[C@H](C(=O)N[C@H](C(=O)N[C@H](C(=O)O)[C@@H](C)CC)[C@@H](C)O)C(C)C)[C@@H](C)CC)[C@@H](C)O [3102.0358] (H-IASTLIVTI-OH)
Reply text: 10

Inquiry: Field request: IC50 | item: CC(C)[C@H](NC(=O)[C@H](CO)NC(=O)[C@H](CCCNC(=N)N)NC(=O)[C@H](Cc1ccccc1)NC(=O)[C@H](CCCNC(=N)N)NC(=O)[C@H](Cc1ccccc1)NC(=O)[C@@H](N)CCCNC(=N)N)C(=O)N[C@@H](Cc1ccc(O)cc1)C(=O)NCC(=O)O [3102.0175] (H-RFRFRSVYG-OH)
Reply text: 0.36

----------
Molecular target: HLA B*0801 (Homo sapiens, UniProt P01889, A93T/A95T/D138N/E176V/E187T/K202T/Q94N/R180D/S35A/V36M/Y33D/Y91F)
Experiment: biochemical
Format: binding
Field: Normalized average relative binding affinity(ARB). Provide a value for each of the sequences that follow.
Reply with just the number.

Inquiry: Field request: Normalized average relative binding affinity(ARB) | item: XXXXAXXXX [3064.0081]
Reply text: 0.029

Inquiry: Field request: Normalized average relative binding affinity(ARB) | item: XXXXXSXXX [3064.0116]
Reply text: 0.052

Inquiry: Field request: Normalized average relative binding affinity(ARB) | item: XXXXXXMXX [3064.0131]
Reply text: 0.62

Inquiry: Field request: Normalized average relative binding affinity(ARB) | item: XXXEXXXXX [3064.0064]
Reply text: 0.24

Inquiry: Field request: Normalized average relative binding affinity(ARB) | item: XXXXXXXKX [3064.0149]
Reply text: 0.14

Inquiry: Field request: Normalized average relative binding affinity(ARB) | item: XXXXXXKXX [3064.0129]
Reply text: 0.26

Inquiry: Field request: Normalized average relative binding affinity(ARB) | item: XXXXXQXXX [3064.0114]
Reply text: 0.031

Inquiry: Field request: Normalized average relative binding affinity(ARB) | item: XXXXXXXHX [3064.0147]
Reply text: 0.15

Inquiry: Field request: Normalized average relative binding affinity(ARB) | item: XXXXXEXXX [3064.0104]
Reply text: 0.023

Inquiry: Field request: Normalized average relative binding affinity(ARB) | item: XXXPXXXXX [3064.0073]
Reply text: 0.34

Inquiry: Field request: Normalized average relative binding affinity(ARB) | item: XXXNXXXXX [3064.0072]
Reply text: 0.48

Inquiry: Field request: Normalized average relative binding affinity(ARB) | item: XXXXXKXXX [3064.0109]
Reply text: 0.073

Inquiry: Field request: Normalized average relative binding affinity(ARB) | item: XXXXXXXFX [3064.0145]
Reply text: 0.32

Inquiry: Field request: Normalized average relative binding affinity(ARB) | item: XXXXXXTXX [3064.0137]
Reply text: 0.46

Inquiry: Field request: Normalized average relative binding affinity(ARB) | item: XXXXXXLXX [3064.0130]
Reply text: 0.60

Inquiry: Field request: Normalized average relative binding affinity(ARB) | item: XXXXXTXXX [3064.0117]
Reply text: 0.068

Inquiry: Field request: Normalized average relative binding affinity(ARB) | item: XXXYXXXXX [3064.0080]
Reply text: 0.59

Inquiry: Field request: Normalized average relative binding affinity(ARB) | item: XXXXXWXXX [3064.0119]
Reply text: 0.046

Inquiry: Field request: Normalized average relative binding affinity(ARB) | item: XXXXXXXMX [3064.0151]
Reply text: 0.24

Inquiry: Field request: Normalized average relative binding affinity(ARB) | item: XXXXXGXXX [3064.0106]
Reply text: 0.025

Inquiry: Field request: Normalized average relative binding affinity(ARB) | item: XXXXXXXSX [3064.0156]
Reply text: 1.0

Inquiry: Field request: Normalized average relative binding affinity(ARB) | item: XXXXCXXXX [3064.0082]
Reply text: 0.020

Inquiry: Field request: Normalized average relative binding affinity(ARB) | item: XXXXVXXXX [3064.0098]
Reply text: 0.019

Inquiry: Field request: Normalized average relative binding affinity(ARB) | item: XXXRXXXXX [3064.0075]
Reply text: 0.86

Inquiry: Field request: Normalized average relative binding affinity(ARB) | item: XXXSXXXXX [3064.0076]
Reply text: 0.48

Inquiry: Field request: Normalized average relative binding affinity(ARB) | item: XXXXKXXXX [3064.0089]
Reply text: 0.47

Inquiry: Field request: Normalized average relative binding affinity(ARB) | item: XXXXMXXXX [3064.0091]
Reply text: 0.078

Inquiry: Field request: Normalized average relative binding affinity(ARB) | item: XXXXEXXXX [3064.0084]
Reply text: 0.014

Inquiry: Field request: Normalized average relative binding affinity(ARB) | item: XXXXXXXIX [3064.0148]
Reply text: 0.39

Inquiry: Field request: Normalized average relative binding affinity(ARB) | item: XXXXXXXQX [3064.0154]
Reply text: 0.15

Inquiry: Field request: Normalized average relative binding affinity(ARB) | item: XXXXXXVXX [3064.0138]
Reply text: 0.55

Inquiry: Field request: Normalized average relative binding affinity(ARB) | item: XXXTXXXXX [3064.0077]
Reply text: 0.52
